Attribution: patent US11504441B2

tissue uptake at 1 h by entry:
test: in vivo; conditions: male, NODSCID 1L2RγKO, mouse, iv, total radioactivity, Muscle uptake
Form entry: value (%ID/g) — number only.

>>> experimental_value("O=C(O)CCC[C@H](NC(=O)N[C@@H](CCCCNC(=O)[C@H](Cc1c2ccccc2cc2ccccc12)NC(=O)Cc1ccc(CNC(=O)CN2CCN(CC(=O)O)CCN(CC(=O)O)CCN(CC(=O)O)CC2)cc1)C(=O)O)C(=O)O [68Ga-HTK04036, metal not drawn]")
0.11

### Prompt Entry under review: O=C(O)CCC[C@H](NC(=O)N[C@@H](CCCCNC(=O)[C@H](Cc1c2ccccc2cc2ccccc12)NC(=O)[C@H]1CC[C@H](CNC(=O)CN2CCN(CC(=O)O)CCN(CC(=O)O)CCN(CC(=O)O)CC2)CC1)C(=O)O)C(=O)O [68Ga-HTK03149, metal not drawn] . Reported tissue uptake at 1 h?
### Response 0.14

### Prompt Entry under review: O=C(O)CCC[C@H](NC(=O)N[C@@H](CCCCNC(=O)[C@H](Cc1c2ccccc2cc2ccccc12)NC(=O)Cc1cccc(CNC(=O)CN2CCN(CC(=O)O)CCN(CC(=O)O)CCN(CC(=O)O)CC2)c1)C(=O)O)C(=O)O [68Ga-HTK04037, metal not drawn] . Reported tissue uptake at 1 h?
### Response 0.08

### Prompt Entry under review: O=C(O)CCCCC(NC(=O)N[C@@H](CCCCNC(=O)[C@H](Cc1c2ccccc2cc2ccccc12)NC(=O)[C@H]1CC[C@H](CNC(=O)CN2CCN(CC(=O)O)CCN(CC(=O)O)CCN(CC(=O)O)CC2)CC1)C(=O)O)C(=O)O (single isomer, unassigned) [68Ga-HTK03189A, metal not drawn] . Reported tissue uptake at 1 h?
### Response 0.14

###

assay: in vivo; set-up: species or system mice; conditions: male, NODSCID 1L2RγKO, mouse, iv, total radioactivity, Fat uptake
reported_property: tissue uptake at 120 h (%ID/g)
Form entry: value (%ID/g) — number only.

### Prompt Entry under review: COc1ccc(CCCC(=O)NCC(=O)N[C@@H](CCCCNC(=O)CN2CCN(CC(=O)O)CCN(CC(=O)O)CCN(CC(=O)O)CC2)C(=O)NC[C@H]2CC[C@H](C(=O)N[C@@H](Cc3c4ccccc4cc4ccccc34)C(=O)NCCCC[C@H](NC(=O)N[C@@H](COCC(=O)O)C(=O)O)C(=O)O)CC2)cc1 [177Lu-HTK04028, metal not drawn] . Reported tissue uptake at 120 h?
### Response 0.03

###

test: in vivo; design: species or system mice; conditions: male, NODSCID 1L2RγKO, mouse, iv, total radioactivity, Adrenal glands uptake
MET means recorded tissue uptake at 24 h is 0.7 %ID/g or above; NOT MET means it is below 0.7 %ID/g.

>>> assigned_category("COc1ccc(CCCC(=O)NCC(=O)N[C@@H](CCCCNC(=O)CN2CCN(CC(=O)O)CCN(CC(=O)O)CCN(CC(=O)O)CC2)C(=O)NC[C@H]2CC[C@H](C(=O)N[C@@H](Cc3c4ccccc4cc4ccccc34)C(=O)NCCCC[C@H](NC(=O)N[C@@H](CSCC(=O)O)C(=O)O)C(=O)O)CC2)cc1 [177Lu-HTK04048, metal not drawn]")
"NOT MET"
>>> assigned_category("COc1ccc(CCCC(=O)NCC(=O)N[C@@H](CCCCNC(=O)CN2CCN(CC(=O)O)CCN(CC(=O)O)CCN(CC(=O)O)CC2)C(=O)NC[C@H]2CC[C@H](C(=O)N[C@@H](Cc3c4ccccc4cc4ccccc34)C(=O)NCCCC[C@H](NC(=O)N[C@@H](COCC(=O)O)C(=O)O)C(=O)O)CC2)cc1 [177Lu-HTK04028, metal not drawn]")
"MET"
>>> assigned_category("O=C(O)CCC[C@H](NC(=O)N[C@@H](CCCCNC(=O)[C@H](Cc1c2ccccc2cc2ccccc12)NC(=O)[C@H]1CC[C@H](CNC(=O)[C@H](CCCCNC(=O)CN2CCN(CC(=O)O)CCN(CC(=O)O)CCN(CC(=O)O)CC2)NC(=O)CNC(=O)CCCc2ccc(Cl)cc2)CC1)C(=O)O)C(=O)O [177Lu-HTK03153, metal not drawn]")
"MET"

### Prompt Dear colleague, could you confirm whether O=C(O)CCC[C@H](NC(=O)N[C@@H](CCCCNC(=O)[C@H](Cc1c2ccccc2cc2ccccc12)NC(=O)[C@H]1CC[C@H](CNC(=O)CN2CCN(CC(=O)O)CCN(CC(=O)O)CCN(CC(=O)O)CC2)CC1)C(=O)O)C(=O)O [177Lu-HTK03149, metal not drawn] has tissue uptake at 24 h at or above 0.7 %ID/g?
### Response NOT MET

### Prompt Dear colleague, could you confirm whether COc1ccc(CCCC(=O)NCC(=O)N[C@@H](CCCCNC(=O)CN2CCN(CC(=O)O)CCN(CC(=O)O)CCN(CC(=O)O)CC2)C(=O)NC[C@H]2CC[C@H](C(=O)N[C@@H](Cc3c4ccccc4cc4ccccc34)C(=O)NCCCC[C@H](NC(=O)N[C@@H](CCCC(=O)O)C(=O)O)C(=O)O)CC2)cc1 [177Lu-HTK03170, metal not drawn] has tissue uptake at 24 h at or above 0.7 %ID/g?
### Response NOT MET

###

test: in vivo; set-up: species or system mice; conditions: male, NODSCID 1L2RγKO, mouse, iv, total radioactivity, Testes uptake
rule met means recorded tissue uptake at 120 h is 0.2 %ID/g or above; rule not met means it is below 0.2 %ID/g.

>>> assigned_category("COc1ccc(CCCC(=O)NCC(=O)N[C@@H](CCCCNC(=O)CN2CCN(CC(=O)O)CCN(CC(=O)O)CCN(CC(=O)O)CC2)C(=O)NC[C@H]2CC[C@H](C(=O)N[C@@H](Cc3c4ccccc4cc4ccccc34)C(=O)NCCCC[C@H](NC(=O)N[C@@H](CCCC(=O)O)C(=O)O)C(=O)O)CC2)cc1 [177Lu-HTK03170, metal not drawn]")
"rule not met"

### Prompt Dear colleague, could you confirm whether O=C(O)CCC[C@H](NC(=O)N[C@@H](CCCCNC(=O)[C@H](Cc1c2ccccc2cc2ccccc12)NC(=O)[C@H]1CC[C@H](CNC(=O)[C@H](CCCCNC(=O)CN2CCN(CC(=O)O)CCN(CC(=O)O)CCN(CC(=O)O)CC2)NC(=O)CNC(=O)CCCc2ccc(Cl)cc2)CC1)C(=O)O)C(=O)O [177Lu-HTK03153, metal not drawn] has tissue uptake at 120 h at or above 0.2 %ID/g?
### Response rule met

### Prompt Dear colleague, could you confirm whether COc1ccc(CCCC(=O)NCC(=O)N[C@@H](CCCCNC(=O)CN2CCN(CC(=O)O)CCN(CC(=O)O)CCN(CC(=O)O)CC2)C(=O)NC[C@H]2CC[C@H](C(=O)N[C@@H](Cc3c4ccccc4cc4ccccc34)C(=O)NCCCC[C@H](NC(=O)N[C@@H](COCC(=O)O)C(=O)O)C(=O)O)CC2)cc1 [177Lu-HTK04028, metal not drawn] has tissue uptake at 120 h at or above 0.2 %ID/g?
### Response rule met

### Prompt Dear colleague, could you confirm whether COc1ccc(CCCC(=O)NCC(=O)N[C@@H](CCCCNC(=O)CN2CCN(CC(=O)O)CCN(CC(=O)O)CCN(CC(=O)O)CC2)C(=O)NC[C@H]2CC[C@H](C(=O)N[C@@H](Cc3c4ccccc4cc4ccccc34)C(=O)NCCCC[C@H](NC(=O)N[C@@H](CSCC(=O)O)C(=O)O)C(=O)O)CC2)cc1 [177Lu-HTK04048, metal not drawn] has tissue uptake at 120 h at or above 0.2 %ID/g?
### Response rule met

### Prompt Dear colleague, could you confirm whether O=C(O)CCC[C@H](NC(=O)N[C@@H](CCCCNC(=O)[C@H](Cc1c2ccccc2cc2ccccc12)NC(=O)[C@H]1CC[C@H](CNC(=O)CN2CCN(CC(=O)O)CCN(CC(=O)O)CCN(CC(=O)O)CC2)CC1)C(=O)O)C(=O)O [177Lu-HTK03149, metal not drawn] has tissue uptake at 120 h at or above 0.2 %ID/g?
### Response rule not met

###

assay: in vivo; parameters: species or system mice; conditions: male, NODSCID 1L2RγKO, mouse, iv, total radioactivity, Tumor uptake
tissue uptake at 4 h by entry:
Form entry: value (%ID/g) — number only.

>>> experimental_value("COc1ccc(CCCC(=O)NCC(=O)N[C@@H](CCCCNC(=O)CN2CCN(CC(=O)O)CCN(CC(=O)O)CCN(CC(=O)O)CC2)C(=O)NC[C@H]2CC[C@H](C(=O)N[C@@H](Cc3c4ccccc4cc4ccccc34)C(=O)NCCCC[C@H](NC(=O)N[C@@H](CSCC(=O)O)C(=O)O)C(=O)O)CC2)cc1 [177Lu-HTK04048, metal not drawn]")
46.5
>>> experimental_value("O=C(O)CCC[C@H](NC(=O)N[C@@H](CCCCNC(=O)[C@H](Cc1c2ccccc2cc2ccccc12)NC(=O)[C@H]1CC[C@H](CNC(=O)CN2CCN(CC(=O)O)CCN(CC(=O)O)CCN(CC(=O)O)CC2)CC1)C(=O)O)C(=O)O [177Lu-HTK03149, metal not drawn]")
20.9
>>> experimental_value("O=C(O)CCC[C@H](NC(=O)N[C@@H](CCCCNC(=O)[C@H](Cc1c2ccccc2cc2ccccc12)NC(=O)[C@H]1CC[C@H](CNC(=O)[C@H](CCCCNC(=O)CN2CCN(CC(=O)O)CCN(CC(=O)O)CCN(CC(=O)O)CC2)NC(=O)CNC(=O)CCCc2ccc(Cl)cc2)CC1)C(=O)O)C(=O)O [177Lu-HTK03153, metal not drawn]")
27.9
>>> experimental_value("COc1ccc(CCCC(=O)NCC(=O)N[C@@H](CCCCNC(=O)CN2CCN(CC(=O)O)CCN(CC(=O)O)CCN(CC(=O)O)CC2)C(=O)NC[C@H]2CC[C@H](C(=O)N[C@@H](Cc3c4ccccc4cc4ccccc34)C(=O)NCCCC[C@H](NC(=O)N[C@@H](COCC(=O)O)C(=O)O)C(=O)O)CC2)cc1 [177Lu-HTK04028, metal not drawn]")
42.6

### Prompt Entry under review: COc1ccc(CCCC(=O)NCC(=O)N[C@@H](CCCCNC(=O)CN2CCN(CC(=O)O)CCN(CC(=O)O)CCN(CC(=O)O)CC2)C(=O)NC[C@H]2CC[C@H](C(=O)N[C@@H](Cc3c4ccccc4cc4ccccc34)C(=O)NCCCC[C@H](NC(=O)N[C@@H](CCCC(=O)O)C(=O)O)C(=O)O)CC2)cc1 [177Lu-HTK03170, metal not drawn] . Reported tissue uptake at 4 h?
### Response 47.6
